target.or.test.system: RET(V804M) (Homo sapiens, UniProt P07949, V804M)
Construct: purchased Reaction Biology Corp
Sequence (P07949 29-1114 V804M): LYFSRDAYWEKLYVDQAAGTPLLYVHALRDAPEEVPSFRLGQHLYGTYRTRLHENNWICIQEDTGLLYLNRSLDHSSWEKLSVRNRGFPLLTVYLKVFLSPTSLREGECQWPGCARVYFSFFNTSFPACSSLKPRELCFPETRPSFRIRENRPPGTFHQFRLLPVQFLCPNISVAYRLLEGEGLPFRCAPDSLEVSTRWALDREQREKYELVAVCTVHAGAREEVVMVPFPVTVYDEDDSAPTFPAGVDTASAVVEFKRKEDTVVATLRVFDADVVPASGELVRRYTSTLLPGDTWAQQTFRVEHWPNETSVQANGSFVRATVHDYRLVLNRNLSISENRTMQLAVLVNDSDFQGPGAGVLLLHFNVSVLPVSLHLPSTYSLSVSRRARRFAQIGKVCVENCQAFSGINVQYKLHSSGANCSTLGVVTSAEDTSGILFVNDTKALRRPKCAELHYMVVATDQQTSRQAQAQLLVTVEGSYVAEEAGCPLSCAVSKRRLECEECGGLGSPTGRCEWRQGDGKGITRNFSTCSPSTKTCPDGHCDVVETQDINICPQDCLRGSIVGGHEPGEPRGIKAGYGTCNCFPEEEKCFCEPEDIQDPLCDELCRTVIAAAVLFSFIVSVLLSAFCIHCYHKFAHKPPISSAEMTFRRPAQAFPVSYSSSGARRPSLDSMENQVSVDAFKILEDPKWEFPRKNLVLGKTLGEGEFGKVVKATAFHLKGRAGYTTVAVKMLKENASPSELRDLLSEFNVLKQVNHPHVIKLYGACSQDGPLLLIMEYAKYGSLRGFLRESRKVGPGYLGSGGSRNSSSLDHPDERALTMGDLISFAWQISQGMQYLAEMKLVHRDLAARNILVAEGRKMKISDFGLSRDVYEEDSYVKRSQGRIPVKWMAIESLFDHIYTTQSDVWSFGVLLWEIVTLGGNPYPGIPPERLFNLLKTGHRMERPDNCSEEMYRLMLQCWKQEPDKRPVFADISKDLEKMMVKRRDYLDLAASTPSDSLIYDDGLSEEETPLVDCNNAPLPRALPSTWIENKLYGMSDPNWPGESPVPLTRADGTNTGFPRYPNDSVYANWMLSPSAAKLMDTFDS
test.summary: Kinase panel inhibition, radiolabeled [γ-33P] ATP (Reaction Biology Corp)
Format: biochemical
setup.conditions: read-out: Enzymatic inhibitory activity (IC50) nM V804M
The following molecules are listed with their measured IC50 values.

>  <structure>
CCNc1cc(-c2ccc(N3CC(Oc4cccc(F)c4)C3)nc2)c2nccnc2c1

>  <IC50 / nM>
0.78

$$$$
>  <structure>
Nc1cc(-c2ccc(N3CC[C@H](NC(=O)c4ccccc4F)C3)nc2)c2nccnc2c1

>  <IC50 / nM>
0.5

$$$$
>  <structure>
Nc1cc(-c2ccc(N3CC(Oc4cccc(F)c4)C3)nc2)c2nccnc2c1

>  <IC50 / nM>
4.2

$$$$

---

target.or.test.system: RET (Homo sapiens)
Construct: purchased Reaction Biology Corp
Sequence (P07949 29-1114): as the sequence (P07949 29-1114 V804M) above, with M776V counted along it
test.summary: Kinase panel inhibition, radiolabeled [γ-33P] ATP (Reaction Biology Corp)
Assay type: biochemical
setup.conditions: read-out: Enzymatic inhibitory activity (IC50) nM RET
Recorded IC50 for the following compounds

>  <structure>
CCNc1cc(-c2ccc(N3CC(Oc4cccc(F)c4)C3)nc2)c2nccnc2c1

>  <target.or.test.system>
RET (Homo sapiens)

>  <IC50>
0.57 nM

$$$$
>  <structure>
Nc1cc(-c2ccc(N3CC(Oc4cccc(F)c4)C3)nc2)c2nccnc2c1

>  <target.or.test.system>
RET (Homo sapiens)

>  <IC50>
3.9 nM

$$$$

---

target.or.test.system: RET-CCDC6 (PTC1) (Homo sapiens, UniProt P07949)
Construct: purchased Reaction Biology Corp
Sequence (P07949 whole entry, looked up): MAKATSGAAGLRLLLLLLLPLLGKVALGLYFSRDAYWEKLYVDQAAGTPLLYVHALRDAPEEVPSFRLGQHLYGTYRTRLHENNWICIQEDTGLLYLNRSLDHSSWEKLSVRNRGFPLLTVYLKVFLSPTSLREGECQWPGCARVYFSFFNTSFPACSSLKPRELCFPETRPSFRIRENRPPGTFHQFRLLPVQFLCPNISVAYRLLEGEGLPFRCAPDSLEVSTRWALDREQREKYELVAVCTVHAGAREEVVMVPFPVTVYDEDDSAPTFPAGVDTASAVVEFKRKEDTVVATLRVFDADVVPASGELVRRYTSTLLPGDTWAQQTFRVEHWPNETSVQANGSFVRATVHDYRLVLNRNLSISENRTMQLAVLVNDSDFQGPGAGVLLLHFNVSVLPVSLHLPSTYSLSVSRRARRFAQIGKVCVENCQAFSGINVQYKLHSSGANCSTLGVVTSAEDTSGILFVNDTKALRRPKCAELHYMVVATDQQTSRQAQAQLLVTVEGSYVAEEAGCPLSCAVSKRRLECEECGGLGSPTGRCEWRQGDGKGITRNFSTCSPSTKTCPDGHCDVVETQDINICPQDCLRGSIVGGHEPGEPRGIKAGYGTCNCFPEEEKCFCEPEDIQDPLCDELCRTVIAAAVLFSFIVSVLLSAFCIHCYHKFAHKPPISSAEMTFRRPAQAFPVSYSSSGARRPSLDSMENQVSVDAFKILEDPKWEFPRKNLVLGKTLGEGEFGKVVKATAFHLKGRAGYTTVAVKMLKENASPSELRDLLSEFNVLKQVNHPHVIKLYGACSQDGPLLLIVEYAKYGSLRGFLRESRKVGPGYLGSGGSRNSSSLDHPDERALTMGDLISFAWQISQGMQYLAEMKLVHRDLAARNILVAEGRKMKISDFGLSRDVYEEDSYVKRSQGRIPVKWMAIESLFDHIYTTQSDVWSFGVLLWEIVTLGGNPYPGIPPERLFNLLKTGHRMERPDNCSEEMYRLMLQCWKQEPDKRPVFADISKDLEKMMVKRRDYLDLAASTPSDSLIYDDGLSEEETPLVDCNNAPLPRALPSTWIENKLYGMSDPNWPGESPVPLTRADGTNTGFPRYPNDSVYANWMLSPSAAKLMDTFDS
test.summary: Kinase panel inhibition, radiolabeled [γ-33P] ATP (Reaction Biology Corp)
Assay type: biochemical
setup.conditions: compound at 30uM; ATP 1 µM; Data 2; read-out: % Enzyme Activity (relative to DMSO controls) RET-CCDC6 (PTC1) Data 2
Rule: measured remaining activity at 30 µM below 10% gets 1.0; anything equal to or greater than 10% gets 0.0.

>  <compound>
Nc1cc(-c2cnc(Cl)nc2)c2nccnc2c1 [Intermediate Compound 16]

>  <class.assignment>
0.0

$$$$
>  <compound>
CC(C)Nc1cc(-c2ccc(F)nc2)c2nccnc2c1 [Intermediate Compound 8]

>  <class.assignment>
1.0

$$$$
>  <compound>
CNc1cc(-c2ccc(F)nc2)c2nccnc2c1 [Intermediate Compound 5]

>  <class.assignment>
1.0

$$$$
>  <compound>
Nc1cc(-c2ccc(F)nc2)c2nccnc2c1 [Intermediate Compound 4]

>  <class.assignment>
0.0

$$$$
>  <compound>
CC(C)Nc1cc(Br)c2nccnc2c1 [Intermediate Compound 20, 8-Bromo-N-isopropylquin oxalin-6-amine]

>  <class.assignment>
1.0

$$$$

---

target.or.test.system: RET (G810S/M918T) (Homo sapiens, UniProt P07949, G810S/M918T)
Construct: purchased Reaction Biology Corp
Sequence (P07949 29-1114 G810S/M918T): as the sequence (P07949 29-1114 V804M) above, with M776V, G782S, M890T counted along it
test.summary: Kinase panel inhibition, radiolabeled [γ-33P] ATP (Reaction Biology Corp)
Assay type: biochemical
setup.conditions: compound at 10 uM; ATP 1 µM; Data 2; read-out: % Enzyme Activity (relative to DMSO controls) RET (G810S/M918T) Data 2
# remaining activity at 10 µM per entry
property: remaining activity at 10 µM (%)

>  <compound>
Nc1cc(-c2ccc(N3CC(Oc4cccc(F)c4)C3)nc2)c2nccnc2c1 [Example 1]

>  <property>
remaining activity at 10 µM

>  <value.unit>
%

>  <result>
-0.72

$$$$
>  <compound>
CCNc1cc(Nc2cc(C)[nH]n2)c2nccnc2c1 [Example 32]

>  <property>
remaining activity at 10 µM

>  <value.unit>
%

>  <result>
40.6

$$$$
>  <compound>
O=C(Nc1cc(-c2ccc(N3CC(Oc4cccc(F)c4)C3)nc2)c2nccnc2c1)c1ccco1 [Example 8]

>  <property>
remaining activity at 10 µM

>  <value.unit>
%

>  <result>
12.9

$$$$
>  <compound>
O=C(Nc1cc(-c2ccc(N3CC[C@H](NC(=O)c4ccccc4F)C3)nc2)c2nccnc2c1)c1ccccn1 [Example 18]

>  <property>
remaining activity at 10 µM

>  <value.unit>
%

>  <result>
25.5

$$$$
>  <compound>
CCCCNc1cc(-c2ccc(N3CC(Oc4cccc(F)c4)C3)nc2)c2nccnc2c1 [Example 6]

>  <property>
remaining activity at 10 µM

>  <value.unit>
%

>  <result>
2.37

$$$$
